The values you see were collected from patent US20230159511A1.

measurement target: human KEAP1 (N-term, residues 321-609) (Homo sapiens)
Construct: human KEAP1 (N-term, residues 321-609)
Sequence (Q14145 321-609): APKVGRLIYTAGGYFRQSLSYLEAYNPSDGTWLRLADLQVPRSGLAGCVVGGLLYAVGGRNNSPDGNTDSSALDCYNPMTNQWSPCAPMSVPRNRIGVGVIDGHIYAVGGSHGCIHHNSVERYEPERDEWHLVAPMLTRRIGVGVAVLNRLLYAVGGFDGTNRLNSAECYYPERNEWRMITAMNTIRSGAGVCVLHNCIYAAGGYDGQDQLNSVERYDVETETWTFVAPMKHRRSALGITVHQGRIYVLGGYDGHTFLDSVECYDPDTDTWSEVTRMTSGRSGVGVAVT
assay protocol: KEAP1 Kelch Fluorescence Polarization (FP) Assay
protocol conditions: inhibition of Kelch domain-NRF2 interaction; 2 nM FITC-labelled NRF2 peptide, 25 nM KEAP1, 1 h room temperature; compounds below 10 nM cannot be differentiated
As shown below, each of these compounds has a reported IC50 value.
measurement label: IC50 (µM)

1) CNC(=O)[C@@]1(C)CCCC[C@H]1C(=O)N1CCc2c(Cl)ccc(OCc3nnn(C)c3C(F)F)c2[C@H]1CN1CCCC1=O [Example 69] = 0.014
2) CNC(=O)[C@H]1CCCC[C@H]1C(=O)N1CCc2c(Cl)ccc(OCc3noc4ncccc34)c2[C@H]1CN1CCCC1=O [Example 70] = 0.029
3) CNC(=O)[C@@]1(C)CCCC[C@H]1C(=O)N1CCc2c(Cl)ccc(OCc3nnn(C)c3C3CC3)c2[C@H]1CN1CC2(CC2)CC1=O [Example 103] = 0.0071
4) CCNC(=O)[C@H]1CCCC[C@H]1C(=O)N1CCc2cccc(OCCNC(=O)c3cc(C)on3)c2[C@H]1CN1C(=O)c2ccccc2C1=O [Example 6] = 0.196
